Tested on: Ctenocephalides felis
Assay: Ctenocephalides felis oral (CTECFE)
Format: in vivo
Details: 100 ppm; after 2 days
Below is a list of entries, each paired with its recorded kill in % (effect) value.

# molecule, kill in % (effect) [%]
records = [
    ("Cn1nc(C(F)(F)F)c(C(F)(F)F)c1C(=O)Nc1ccc(Cl)c(C(=O)NC2(C#N)CC2)c1 [Example 9]", 100),
    ("CCN(C(=O)c1c(C(F)(F)F)c(C(F)(F)C(F)(F)F)nn1C)c1ccc(Cl)c(C(=O)NC2(C#N)CC2)c1 [Example 6]", 100),
    ("CN(C(=O)c1c(C(F)(F)F)c(C(F)(F)F)nn1C)c1ccc(Cl)c(C(=O)NC2(C#N)CC2)c1 [Example 2]", 100),
    ("CN(C(=O)c1c(C(F)(F)F)c(C(F)(F)C(F)(F)F)nn1C)c1ccc(Cl)c(C(=O)NC2(C#N)CC2)c1 [Example 8]", 100),
    ("Cn1nc(C(F)(F)C(F)(F)F)c(C(F)(F)F)c1C(=O)Nc1ccc(Cl)c(C(=O)NC2(C#N)CC2)c1 [Example 10]", 100),
    ("Cn1nc(C(F)(F)C(F)(F)F)c(C(F)(F)F)c1C(=O)Nc1ccc(Cl)c(C(=O)NC2(C#N)CCC2)c1 [Example 7]", 80),
]
